Provide the recorded inhibition for the entries that follow.
assay: NOD1 signaling inhibitors, primary screen, cell-based, luminescence, uHTS (AID 1578); details: NOD1-driven NF-kB luciferase reporter cells, at 4 µM, stronger effect = higher value;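 note: HEK-293T reporter cells stimulated with the NOD1 agonist gamma-tri-DAP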
The campaign covered roughly 290,000 compounds. About 3,000 (1%) were called active. For the sample, actives were picked, then their nearest neighbours and some compounds at random.
All answers are understood in %, so give the number only.

Answer with the recorded inhibition for the molecule listed here: `CC(=O)Nc1cccc(CP(=O)(c2ccccc2)c2ccccc2)c1`
-3.5

// Input: `COc1ccccc1NC(=O)C(=O)N/N=C/c1ccc([N+](=O)[O-])s1` . Output its inhibition only.
74.8

Give the measured inhibition for `CCN(CC)CCNC1=CC(=O)OC12CCCCC2`
-19.3

Specify reported inhibition for the molecule shown: `O=C(Nc1cccc(-c2cnc3ccccc3n2)c1)c1ccccc1`
-0.8

Return inhibition for the following molecule: O=C(N/N=C\c1ccc(Cl)s1)C1COc2ccccc2O1 (stereo not given)
-4.2

Specify reported inhibition for the molecule shown: `O=C1c2ccccc2-c2onc3ccc(Oc4ccccc4)c1c23`
86.3

Name the recorded inhibition of the item `CC(=O)/C(C(=N)N1CCN(c2cccc(Cl)c2)CC1)=C(\C)O` in your answer.
24.8

Quote inhibition reported for `O=C(CCl)Nc1cccc(CP(=O)(c2ccccc2)c2ccccc2)c1` please.
106

Given `C#CCSc1nnc(-c2c[nH]c3ccccc23)n1C` , respond with its inhibition.
-40.9

Quote inhibition reported for `CCc1ccc(NC(=O)CSc2nnc(-c3n[nH]c4ccccc34)n2-c2ccccc2)cc1` please.
6

Return inhibition for the following molecule: O=C(N/N=C\c1cccc([N+](=O)[O-])c1O)C1COc2ccccc2O1 (stereo not given)
-14.4

Note down inhibition recorded for `COc1ccc(Nc2nc3ccccc3nc2NS(=O)(=O)c2cccs2)c(OC)c1`
18

# return recorded inhibition for entry `Cc1ccc(C(=O)Nc2nc(C)c(C)s2)o1`
-44.9

Provide only the value of recorded inhibition for `COc1ccc(S(=O)(=O)Nc2ccccc2C(=O)N2CCCCC2)cc1C`
-14.5

Please report inhibition for the following molecule: `Cc1cc(C(=O)N/N=C/c2ccc([N+](=O)[O-])cc2)c2ccccc2n1`
8.1

Quick one: give measured inhibition for `O=C(CN1CCCCC1)Nc1cccc(Oc2ccccc2)c1`
-5.2

Respond only with inhibition recorded for `Cc1ccccc1-n1c(=O)cc(NCc2ccc3c(c2)OCO3)[nH]c1=O`
-1.9

Tell me inhibition reported for CS(=O)(=O)c1ccc(S(=O)CC(=O)Oc2ccc(Cl)cc2)c([N+](=O)[O-])c1 (stereo not given)
47.4

Write down inhibition measured for item `CCOc1ccc2noc3c2c1C(=O)c1ccccc1-3`
-12.5

Tell me measured inhibition for `Cc1ccccc1C(=O)N/N=C/c1ccc([N+](=O)[O-])s1` please.
11

Could you please provide reported inhibition for CC(Cl)C(=O)c1c[nH]c2ccccc12 (stereo not given) ? Thanks!
-10.4

Supply reported inhibition belonging to this molecule: `CCOC(=O)C(CCCOc1ccccc1)C(=O)OCC`
10.5

Supply recorded inhibition for `CN1CCN(Cc2nc3c(c(=O)n(C)c(=O)n3C)n2CCCc2ccccc2)CC1` here.
16.4

Identify measured inhibition associated with COc1cccc(CN(Cc2ccco2)C(c2ccc(F)cc2)c2nnnn2C(C)(C)C)c1 (stereo not given)
50.8

Specify reported inhibition for the molecule shown: `COC(=O)c1ccc(NC(=O)c2ccccc2NS(C)(=O)=O)cc1`
-12

Quote inhibition reported for `O=C(c1ccccc1)c1c[nH]c2ccccc12` please.
-14.2

State its inhibition: `Cc1c(NC(=O)CC(=O)Nc2c(C)n(C)n(-c3ccccc3)c2=O)c(=O)n(-c2ccccc2)n1C`
14.4

Output inhibition of `COc1ccc(NC(=O)Nc2cccc3ccccc23)cc1S(N)(=O)=O`
25.8

Give the reported value of inhibition for this record: `Cc1c(C)c2c(OCC(=O)N3CCC(C(=O)O)CC3)cc3c(c2oc1=O)CCC(C)(C)O3`
-8.2

Respond only with inhibition recorded for `COC(=O)c1ccc(Cl)c(NC(=O)c2cccc([N+](=O)[O-])c2C)c1`
-17.4

Report inhibition for `COc1ccc(NC(=O)c2nnn(CC(=O)Nc3ccc4c(c3)OCO4)c2N)c(OC)c1`
-46.4

Consider the molecule `C/C(=N/NC(=O)c1ccc(C)s1)c1cccnc1` and give its recorded inhibition.
-53.1

For the molecule `COc1ccc(S(=O)(=O)NCCc2c(C)nn(C)c2Oc2ccccc2)cc1` , give its reported inhibition.
-4.8

Give the value of inhibition reported for the following: `COC(=O)c1cc(C)nc2c1C(=O)C(=O)C=C2N1CCOCC1`
-6.2

Dear colleague, please send me the reported inhibition for `O=C(O)c1ccc(Nc2nc3ccccc3nc2NS(=O)(=O)c2cccs2)cc1` when you can.
-3.1

Identify inhibition associated with the molecule `CCC(=O)Nc1cccc(-c2cnc3ccccc3n2)c1`
-54.6

Provide measured inhibition value, entry: `O=C(Nc1ccccc1-c1nnc(SCc2ccc(Cl)cc2)o1)c1ccccc1`
5.6

Return value of inhibition for input `CCN(CC)CCNc1cc(C)nc2c1C(=O)C(=O)C=C2N1CCCCC1` , no commentary.
101

Supply measured inhibition of `COc1cccc(C(=O)Nc2ccc(S(=O)(=O)Nc3nccc(C)n3)cc2)c1` in your reply.
-16.6

Output inhibition of `CN(c1ccccc1)c1ccc(/C=C(\C#N)c2nnc3n2CCCCC3)cc1[N+](=O)[O-]`
78.8

Please indicate inhibition recorded for `N#C/C(=C\c1cccc([N+](=O)[O-])c1)c1nnc2n1CCCCC2`
9

Provide only the value of recorded inhibition for `CCc1ccccc1NC(=O)c1cc(-c2ccc(OC)cc2)on1`
-2

Give inhibition for COc1ccc(C2C(C(N)=O)=C(C)Nc3ncnn32)cc1 (stereo not given)
-4.5

Give the value of inhibition reported for the following: CC(CCc1ccccc1)NC(=O)CN1CCSc2ccccc21 (stereo not given)
8

Please list inhibition recorded for the molecule O=C(c1c[nH]c2ccccc12)C(Cl)c1ccccc1 (stereo not given)
96.9
